- subjectOfTest: Human vitronectin receptor (αv β3) (Homo sapiens, UniProt P05106+P06756)
- Construct: Human vitronectin receptor(αv β3) was purified from human placenta; from tissue; host or cells: human placenta
- protocolSummary: Vitronectin adhesion assay (solid phase receptor assay, biotinylated vitronectin competition)
- Assay type: binding
- conditionSet: inhibition of 50% of the maximum binding of biotinylated vitronectin; 1 nM labeled ligand, 2 hours, room temperature, highest concentration of test compound 1.0×10^-4 M; read-out: AvB3 IC50
Counter-ions that a name gives are not always drawn.
measurementType: IC50 (nM)

Here is how some compounds turned out for IC50.
O=C(O)COc1cccc(C(=O)/C=C/c2cccc(NC3=NCCN3)c2)c1 [Example 72, trifluoroacetate salt hydrate]
168
N=C(N)Nc1cccc(SCc2cccc(C(CC(=O)O)c3ccccc3)c2)c1 (centres unmarked) [Example 87, Trifluoroacetate Salt]
51.2
O=C(O)CC(c1cc(F)cc(F)c1)c1cccc(NS(=O)(=O)c2cccc(NC(=S)NCc3ccccc3)c2)c1 (centres unmarked)
122

I: O=C(O)CC(c1ccccc1)c1cccc(NS(=O)(=O)c2cccc(NC(=O)NCc3ccccc3)c2)c1 (centres unmarked) [Example 13, monohydrate]
II: N=C(N)Nc1cccc(CNc2cccc(C(CC(=O)O)c3ccccc3)c2)c1 (centres unmarked) [Example 11, trifluoroacetate salt]
III: N=C(N)Nc1cccc(NC(=O)Nc2cccc(CCC(=O)O)c2)c1 [Example 51, trifluoroacetate salt]
IV: COc1ccc2[nH]c(Nc3cccc(C(=O)NCc4cccc(C(C)CC(=O)O)c4)c3)nc2c1 (racemic) [Example 70, trifluoroacetate salt]
In this exercise, place the 4 compounds in ascending sequence of their recorded IC50. Sort the labels as requested; that list is your answer.
I, II, IV, III
(I: 163 nM, II: 554 nM, IV: 1710 nM, III: 3090 nM)

---

- subjectOfTest: Human vitronectin receptor (αv β3) (Homo sapiens, UniProt P05106+P06756)
- Construct: Human vitronectin receptor(αv β3) was purified from human placenta; from tissue; host or cells: human placenta
- protocolSummary: Vitronectin adhesion assay (solid phase receptor assay, biotinylated vitronectin competition)
- Assay type: binding
- conditionSet: inhibition of 50% of the maximum binding of biotinylated vitronectin; 1 nM labeled ligand, 2 hours, room temperature, highest concentration of test compound 1.0×10^-4 M; read-out: AvB3 IC50
pIC50: −log10 of the molar value. Counter-ions that a name gives are not always drawn.
measurementType: pIC50

CC(CC(=O)O)c1cccc(CNC(=O)c2cccc(NC3=NC(=O)CN3)c2)c1 (racemic)
6.91
NC(=O)N=C(N)Nc1cccc(S(=O)(=O)Nc2cccc(C(CC(=O)O)c3cc(F)cc(F)c3)c2)c1 (stereo not shown) [Example 91, Trifluoroacetate Salt]
8.08

a: N=C(N)Nc1cccc(S(=O)(=O)Nc2cccc(C(CC(=O)O)c3cc(F)c(F)c(F)c3)c2)c1 (stereo not shown) [Example 80, Trifluoroacetate Salt]
b: N=C(N)Nc1cccc(NC(=O)NCc2cccc(CCC(=O)O)c2)c1 [Example 53, trifluoroacetate salt]
Dear colleague, could you let me know whether a or b has the lower recorded pIC50? Thanks. Give the label of your selection.
b
(b: 5.78, a: 7.89)

---

- subjectOfTest: Human vitronectin receptor (αv β3) (Homo sapiens, UniProt P05106+P06756)
- Construct: Human vitronectin receptor(αv β3) was purified from human placenta; from tissue; host or cells: human placenta
- protocolSummary: Vitronectin adhesion assay (solid phase receptor assay, biotinylated vitronectin competition)
- Assay type: binding
- conditionSet: inhibition of 50% of the maximum binding of biotinylated vitronectin; 1 nM labeled ligand, 2 hours, room temperature, highest concentration of test compound 1.0×10^-4 M; read-out: AvB3 IC50
Counter-ions that a name gives are not always drawn.
measurementType: IC50 (nM)

a: N=C(N)Nc1cccc(/C=C/C(=O)c2cccc(OCC(=O)O)c2)c1 [Example 73, monohydrochloride]
b: NC(=O)N=C(N)Nc1cccc(S(=O)(=O)Nc2cccc(C(CC(=O)O)c3cc(Cl)cc(Cl)c3)c2)c1 (stereo not shown) [Example 90, Trifluoroacetate Salt]
c: CCC(CC(=O)O)c1cccc(CNC(=O)c2cccc(NC(=N)N)c2)c1 (stereo not shown) [Example 42, trifluoroacetate salt]
# ascending order, key=IC50 Sort the labels as requested; that list is your answer.
c, b, a
(c: 11.7 nM, b: 88.9 nM, a: 589 nM)

a: O=C(O)CCc1cccc(OCC(O)c2cccc(NC3=NCCN3)c2)c1 (stereo not shown) [Example 71, trifluoroacetate salt]
b: CNC(=NC#N)Nc1cccc(C(=O)NCc2cccc(C(CC(=O)O)c3ccccc3)c2)c1 (stereo not shown)
Dear colleague, could you let me know whether a or b has the lower recorded IC50? Thanks. Give the label of your selection.
a
(a: 30.4 nM, b: 108 nM)

P: N=C(N)Nc1cccc(C(=O)NCc2cccc(CCC(=O)O)c2)c1 [Example 35, trifluoroacetate salt]
Q: N=C(N)Nc1cccc(S(=O)(=O)Cc2cccc(C(CC(=O)O)c3ccccc3)c2)c1 (stereo not shown) [Example 89, Trifluoroacetate Salt]
R: NC(=O)Nc1cccc(C(=O)Nc2cccc(C(CC(=O)O)c3ccccc3)c2)c1 (stereo not shown)
S: O=C(O)CC(c1cc(F)cc(F)c1)c1cccc(NS(=O)(=O)c2cccc(NC3=NCCN3)c2)c1 (stereo not shown) [Example 98, Trifluoroacetate Salt]
Order the records so the highest IC50 appears first and the lowest last. Sort the labels as requested; that list is your answer.
R, P, Q, S

The measured values listed here are drawn from patent US5773646A.
